# pEC50 annotations
# Tested on: Influenza A virus
# assay remarks: Antiviral activity against Oseltamivir-resistant Influenza A virus Parma/24/09 (H1N1) infected in MDCK cells incubated for 48 hrs by plaque reduction assay
# Format: functional, organism-based
// pEC50 here means minus log10 of the molar concentration (mol/L)

* O=C(Nc1sc2c(c1C(=O)Nc1ccccc1O)CCCCC2)c1ccc([N+](=O)[O-])cc1O | 7.09
* N#Cc1ccc(C(=O)Nc2sc3c(c2C(=O)Nc2ccccc2O)CCCCC3)cc1 | 6.55

# input compound: NC(=O)c1ncn([C@@H]2O[C@H](CO)[C@@H](O)[C@H]2O)n1 [RIBAVIRIN] ; wanted: its pEC50
4.66
